PROCEDURE_SUMMARY: Detection of encapsulation efficiency, drug loading concentration and total RNA concentration (RiboGreen)
Type: physicochemical
MEASUREMENT_PARAMETERS: difference vs HIMA (HHMA)
Description: Encapsulation efficiency is a key quality attribute of liposomes, which refers to the percentage of drug content encapsulated in the lipid bimolecular layer accounting for the total drug dose and can reflect the degree of drug encapsulation in liposomes. The Chinese Pharmacopoeia stipulates that the encapsulation efficiency should generally not be less than 80%. The drug loading amount is the ratio of the amount of drug in the liposome to the total amount of drug and carrier in the liposome. […]
QUANTITY_MEASURED: encapsulation efficiency higher than HIMA (%)

STRUCTURE	VALUE_UNIT	RESULT_NUMBER
CCCCCCCCC(CCCCCCCC)C(=O)OCCCCCCN(CCO)CCN(CCO)CCCCCCOC(=O)C(CCCCCCCC)CCCCCCCC	%	30.8
CCCCCCCCC(CCCCCCCC)COC(=O)CCCCCN(CCCO)CCN(CCCO)CCCCCC(=O)OCC(CCCCCCCC)CCCCCCCC	%	32.2
CCCCCCCCCCCOC(=O)CCCN(CCO)CCN(CCO)CCCCCC(=O)OC(CCCCCCCC)CCCCCCCC	%	25.0
CCCCCCCCC(CCCCCCCC)OC(=O)CCCCCN(CCO)CCN(CCO)CCCCCC(=O)OC(CCCCCCCC)CCCCCCCC	%	23.4
CCCCCCCCC(CCCCCCCC)OC(=O)CCCCCCCN(CCO)CCN(CCO)CCCCCCCC(=O)OC(CCCCCCCC)CCCCCCCC	%	27.7
CCCCCCCCC(CCCCCCCC)COC(=O)CCCCCN(CCCO)CCCN(CCCO)CCCCCC(=O)OCC(CCCCCCCC)CCCCCCCC	%	29.5
